# System: DU 145, hormone-independent human prostate carcinoma cells
# ASSAY EXPLANATION: Proliferation assay, DU145 (crystal violet)
# Type: cell-based
# ASSAY CONDITIONS: Homo sapiens, DU-145, 96 h, DU145, 4 days; read-out: Inhibition of DU145 cell proliferation IC50
# From the text: […]
RECORDED METRIC: IC50 (nM)

COc1cc(F)ccc1-c1cc(Nc2cc(CS(C)(=N)=O)cc(C(F)(F)F)n2)ncc1F (single isomer, unassigned; (+)) [Example 22]; 32
CCOC(=O)N=S(C)(=O)Cc1ccnc(Nc2cc(-c3ccc(F)cc3OC)c(F)cn2)c1 (racemic) [Example 11]; 110
COc1cc(CS(C)(=N)=O)cc(Nc2cc(-c3ccc(F)cc3OC)c(F)cn2)n1 (racemic) [Example 6]; 30
COc1cc(F)ccc1-c1cc(Nc2cc(CS(C)(=N)=O)cc(C)n2)ncc1F (single isomer, unassigned; (+)) [Example 32]; 38
COc1cc(F)ccc1-c1cc(Nc2cc(CS(C)(=N)=O)cc(C(F)(F)F)n2)ncc1F (racemic) [Example 21]; 30
CCOc1cc(F)ccc1-c1cc(Nc2cc(CS(C)(=N)=O)cc(F)n2)ncc1F (single isomer, unassigned; (+)) [Example 28]; 120
CCS(=N)(=O)Cc1ccnc(Nc2cc(-c3ccc(F)cc3OC)c(F)cn2)c1 (racemic) [Example 30]; 82
COc1cc(F)ccc1-c1cc(Nc2cc(CS(=N)(=O)CCO)ccn2)ncc1F (racemic) [Example 8]; 110
CCOC(=O)N=S(C)(=O)Cc1cc(Nc2cc(-c3ccc(F)cc3OC)c(F)cn2)nc(OC)c1 (racemic) [Example 15]; 31
COc1cc(F)ccc1-c1cc(Nc2cc(CS(C)(=O)=NC#N)ccn2)ncc1F (single isomer, unassigned) [Example 10]; 34

A: COc1cc(F)ccc1-c1cc(Nc2cc(CS(C)(=O)=NC(=O)C(F)(F)F)cc(C(F)(F)F)n2)ncc1F (single isomer, unassigned; (+)) [Example 24]
B: COc1cc(F)ccc1-c1cc(Nc2cc(CS(C)(=O)=NC(C)=O)ccn2)ncc1F (racemic) [Example 13]
Parameter check: reported IC50 is higher for which label, A or B ? Please indicate the selected item by its label.
B

====

# System: Caco-2, human colorectal carcinoma cells
# ASSAY EXPLANATION: Proliferation assay, Caco-2 (crystal violet)
# Format: cell-based
# ASSAY CONDITIONS: Caco-2, 4 days; read-out: Inhibition of Caco-2 cell proliferation IC50
pIC50: −log10 of the molar value.
RECORDED METRIC: pIC50

Reference set (3 entries):
COc1cc(F)ccc1-c1cc(Nc2cc(CS(C)(=N)=O)ccn2)ncc1F (single isomer, unassigned; (+)) [Example 2]; 7.21
COc1cc(F)ccc1-c1cc(Nc2cc(CS(C)(=N)=O)cc(C(F)(F)F)n2)ncc1F (single isomer, unassigned; (-)); 7.47
COc1cc(F)ccc1-c1cc(Nc2cc(CS(C)(=N)=O)ccn2)ncc1F.Cl (single isomer, unassigned; enantiomer 2); 7.43

A: COc1cc(F)ccc1-c1cc(Nc2cc(CS(C)(=N)=O)cc(C)n2)ncc1F (single isomer, unassigned; (-))
B: COc1cc(F)ccc1-c1cc(Nc2cc(CS(C)(=N)=O)ccn2)ncc1F (single isomer, unassigned; (-)) [Example 3]
Field: lower pIC50 | Options: A / B Please indicate the selected item by its label.
B
